The measured values listed here are drawn from paper PMC8564858.

Reported CDNB Assay % Inhibition values for a set of compounds
# System: AmGSTF1
# experiment: CDNB assay: inhibition of AmGSTF1-catalysed glutathionylation of CDNB
# Type: biochemical, Alopecurus myosuroides
# run.parameters: 100 µM compound; three replicate measurements
Number only, in %; omit the unit.

Before answering, review these 5 worked examples.
compound | units | CDNB Assay % Inhibition
CCCCCCCCCCCCC(Oc1cc(OC)cc2oc(-c3ccccc3)cc(=O)c12)C(=O)O (stereo not drawn) | % | 100
COc1cc(OC)c2c(=O)cc(-c3ncco3)oc2c1 | % | 64
O=c1c(O)c(-c2ccc(O)c(O)c2)oc2cc(O)cc(O)c12 [compound 3, quercetin, reference compound] | % | 94
COc1cc(OC)c2c(=O)cc(-c3ccccc3)oc2c1 [18a] | % | 70
Cc1cc(=O)c2c(O)cc(O)cc2o1 | % | 63

Let's switch to this compound now.
GET /values?item= O=c1cc(-c2ccccc2)oc2cc(OCC3CCCC3)cc(O)c12 &system= AmGSTF1 returns CDNB Assay % Inhibition: 80

---

# System: AmGSTF1
# experiment: CDNB assay: inhibition of AmGSTF1-catalysed glutathionylation of CDNB
# Assay type: biochemical, Alopecurus myosuroides
# run.parameters: 100 µM compound; three replicate measurements
Reported CDNB Assay % Inhibition values for a set of compounds
Number only, in %; omit the unit.

Before answering, review these 10 worked examples.
compound | CDNB Assay % Inhibition [%]
O=c1c(-c2ccc(O)cc2)coc2cc(O)cc(O)c12 [compound 5, reference compound] | 47
COc1cc(OC)c2c(=O)cc(-c3ccc(F)cc3)oc2c1 [18b] | 78
CCc1ccc(-c2cc(=O)c3c(OC)cc(OC)cc3o2)cc1 [18e] | 80
COc1cc(OC)c2c(=O)cc(-c3cccc(-c4ccccc4)c3)oc2c1 [18d] | 87
O=c1cc(-c2ccccc2)oc2ccc(O)cc12 [compound 4, reference compound] | 61
COC(=O)c1ccc(-c2cc(=O)c3c(OC)cc(OC)cc3o2)cc1 [18i] | 58
COc1cc(OC)c2c(=O)cc(NCCCO)oc2c1 [17d] | 12
O=c1cc(-c2ccccc2)oc2cc(N3CCCC3)cc(O)c12 | 46
CCCCCCCCCCC(Oc1cc(O)cc2oc(-c3ccc(O)c(O)c3)c(O)c(=O)c12)C(=O)O (stereo not shown) | 100
O=C1c2c(O)cc(O)cc2O[C@H](c2ccc(O)c(O)c2)[C@H]1O [compound 8, reference compound] | 18

Briefly, CDNB Assay % Inhibition measured for COc1cc(OC)c2c(=O)cc(-c3ccncc3)oc2c1 [18m] : 50

Briefly, CDNB Assay % Inhibition measured for CCCCCOc1cc(O)c2c(=O)cc(-c3ccccc3)oc2c1 : 87

Briefly, CDNB Assay % Inhibition measured for O=c1cc(-c2ccccc2)oc2ccccc12 [compound 7, reference compound] : 14

Briefly, CDNB Assay % Inhibition measured for COc1cc(OC)c2c(=O)cc(C(=O)Nc3ccccc3)oc2c1 [16a] : 49

Briefly, CDNB Assay % Inhibition measured for COc1cccc(-c2cc(=O)c3c(OC)cc(OC)cc3o2)c1 [18f] : 79

---

# Tested on: AmGSTF1
# experiment: CDNB assay: inhibition of AmGSTF1-catalysed glutathionylation of CDNB
# Type: biochemical, Alopecurus myosuroides
# run.parameters: 100 µM compound; three replicate measurements
Short version: CDNB Assay % Inhibition at least 50% is Met, less is Not met.

Some solved cases for reference:
molecule | class
COc1cc(OC)c2c(=O)cc(-c3nccs3)oc2c1 [compound 23] | Met
COc1cc(OC)c2c(=O)cc(-c3nnc(C)o3)oc2c1 [compound 19] | Met
COc1cc(OC)c2c(=O)cc(-c3nnn[nH]3)oc2c1 [compound 22] | Met
O=c1cc(-c2ccc(O)cc2)oc2cc(O)cc(O)c12 [compound 1, apigenin] | Met

Does COc1cc(OC)c2c(=O)cc(-c3ccnn3C)oc2c1 [compound 25] have a reported CDNB Assay % Inhibition of at least 50%?
Met

Does O=c1cc(-c2ccccc2)oc2cc(OCc3ccccc3)cc(O)c12 [compound 30] have a reported CDNB Assay % Inhibition of at least 50%?
Met

Does COc1cc(OC)c2c(=O)cc(-c3ccc4c(c3)OCO4)oc2c1 [18h] have a reported CDNB Assay % Inhibition of at least 50%?
Not met

Does O=c1cc(-c2ccccc2)oc2cc(OCC3CCCCO3)cc(O)c12 (stereo not shown) [compound 34] have a reported CDNB Assay % Inhibition of at least 50%?
Not met

Does COc1cc(OC)c2c(=O)cc(-c3cnnc(C)c3)oc2c1 [18n] have a reported CDNB Assay % Inhibition of at least 50%?
Met

Does COc1cc(OC)c2c(=O)cc(-c3ccc(S(C)(=O)=O)cc3)oc2c1 [18l] have a reported CDNB Assay % Inhibition of at least 50%?
Not met
